target: Aldehyde dehydrogenase 1A1 (Homo sapiens); test: Inhibition of human ALDH1A1 using propionaldehyde as substrate in presence of NAD+ by UV-visible spectrophometric analysis
quantity name: IC50 (nM)
The reply should contain only the number, in nM.

What value of measured IC50 is listed for "CC(C)CCn1c(CN2CCN(C(N)=O)CC2)nc2c1c(=O)n(C)c(=O)n2C" ? 210

====

target: Aldehyde dehydrogenase 1A1 (Homo sapiens, UniProt P00352); experiment: Inhibition of ALDH1A1 (unknown origin)
Sequence (P00352 whole entry): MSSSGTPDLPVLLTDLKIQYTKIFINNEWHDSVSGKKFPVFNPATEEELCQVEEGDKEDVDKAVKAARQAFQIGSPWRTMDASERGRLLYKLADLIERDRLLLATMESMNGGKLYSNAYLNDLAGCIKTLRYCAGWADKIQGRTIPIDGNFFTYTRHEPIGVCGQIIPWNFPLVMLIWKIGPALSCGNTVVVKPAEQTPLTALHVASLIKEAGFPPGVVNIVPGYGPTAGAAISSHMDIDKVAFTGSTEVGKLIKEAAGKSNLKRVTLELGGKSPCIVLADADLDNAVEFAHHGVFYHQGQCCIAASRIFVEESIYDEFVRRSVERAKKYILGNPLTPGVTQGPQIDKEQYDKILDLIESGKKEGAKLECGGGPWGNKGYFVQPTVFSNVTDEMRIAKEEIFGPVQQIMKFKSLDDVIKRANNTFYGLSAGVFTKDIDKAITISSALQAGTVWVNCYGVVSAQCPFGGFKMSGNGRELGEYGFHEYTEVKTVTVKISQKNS
Please go through the items and note down their IC50.
Entry rule: numbers only, all in nM.

# IC50 lookup, item CCC(SC1=Nc2ccccc2C2=NC(C(C)CC)C(=O)N12)C(=O)N1CCc2ccccc21 (stereo not given) 390

For CCC(SC1=Nc2ccccc2C2=NC(C(C)C)C(=O)N12)C(=O)Nc1ccccc1 (stereo not given) , what is its reported IC50? 440

What value of IC50 has been reported for the following compound? CCC(SC1=Nc2ccccc2C2=NC(CC(C)C)C(=O)N12)C(=O)Nc1ccccc1 (stereo not given) 570

Which IC50 reading was recorded for the compound CCC(SC1=Nc2ccccc2C2=NC(CC(C)C)C(=O)N12)C(=O)N1CCc2ccccc21 (stereo not given) ? 1180

Entry CCC(SC1=Nc2ccccc2C2=NC(C(C)C)C(=O)N12)C(=O)N1CCc2ccccc21 (stereo not given) : reported IC50 = ? 840
